- test.system: MDR1 (Homo sapiens, UniProt P08183)
- Construct: host or cells: MDCK cells
- Sequence (P08183 whole entry): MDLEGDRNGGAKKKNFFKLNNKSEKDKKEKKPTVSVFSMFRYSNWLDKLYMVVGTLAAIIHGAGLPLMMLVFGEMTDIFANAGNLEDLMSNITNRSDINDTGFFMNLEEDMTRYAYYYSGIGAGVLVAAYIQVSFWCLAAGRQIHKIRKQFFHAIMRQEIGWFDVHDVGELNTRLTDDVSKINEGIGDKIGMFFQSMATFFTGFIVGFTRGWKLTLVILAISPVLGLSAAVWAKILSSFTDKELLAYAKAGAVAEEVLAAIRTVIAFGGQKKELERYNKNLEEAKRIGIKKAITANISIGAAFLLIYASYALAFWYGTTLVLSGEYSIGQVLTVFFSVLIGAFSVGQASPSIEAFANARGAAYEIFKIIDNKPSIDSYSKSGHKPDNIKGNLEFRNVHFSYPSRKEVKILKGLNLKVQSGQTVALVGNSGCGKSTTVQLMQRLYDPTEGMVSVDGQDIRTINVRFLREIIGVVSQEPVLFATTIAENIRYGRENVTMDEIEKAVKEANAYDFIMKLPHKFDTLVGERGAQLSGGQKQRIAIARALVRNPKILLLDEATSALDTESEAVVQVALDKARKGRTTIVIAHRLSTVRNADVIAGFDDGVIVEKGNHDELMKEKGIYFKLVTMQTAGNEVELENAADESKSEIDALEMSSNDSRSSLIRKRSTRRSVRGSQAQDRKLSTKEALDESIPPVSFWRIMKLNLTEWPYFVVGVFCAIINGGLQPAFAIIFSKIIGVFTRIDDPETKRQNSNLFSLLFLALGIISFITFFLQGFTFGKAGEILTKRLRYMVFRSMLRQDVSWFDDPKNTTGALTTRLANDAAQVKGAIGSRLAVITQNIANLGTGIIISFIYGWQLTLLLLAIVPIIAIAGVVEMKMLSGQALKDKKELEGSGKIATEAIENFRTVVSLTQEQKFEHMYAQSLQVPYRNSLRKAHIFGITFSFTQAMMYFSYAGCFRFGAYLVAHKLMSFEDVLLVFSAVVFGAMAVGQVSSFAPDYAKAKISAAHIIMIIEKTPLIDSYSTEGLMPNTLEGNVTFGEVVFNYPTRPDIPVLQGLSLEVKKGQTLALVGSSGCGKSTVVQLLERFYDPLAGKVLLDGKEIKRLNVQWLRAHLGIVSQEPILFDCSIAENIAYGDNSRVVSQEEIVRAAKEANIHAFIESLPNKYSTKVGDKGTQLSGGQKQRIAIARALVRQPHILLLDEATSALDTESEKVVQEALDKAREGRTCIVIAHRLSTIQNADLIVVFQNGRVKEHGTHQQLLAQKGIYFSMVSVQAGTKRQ
- assay.comment: Bidirectional transport in MDR1-transfected MDCK cell monolayers
- Type: in vitro ADME
- conditions: dog, MDCK-MDR1, MDR1-MDCK permeability assay, B→A; read-out: Calculated recovery, B→A direction
endpoint.name: recovery at 2 μM (%)

O=C1NCc2nc(-c3cnc(N4CC[C@@H](F)C4)cn3)ccc21 [LMD-022]	120
C[C@H]1O[C@@H](O[C@H]2[C@@H](O)C[C@H](O[C@H]3[C@@H](O)C[C@H](O[C@H]4CC[C@@]5(C)[C@H](CC[C@@H]6[C@@H]5C[C@@H](O)[C@]5(C)[C@@H](C7=CC(=O)OC7)CC[C@]65O)C4)O[C@@H]3C)O[C@@H]2C)C[C@H](O)[C@@H]1O [Digoxin]	108
CC(C)NCC(O)COc1cccc2ccccc12 (stereo not drawn) [Propranolol]	116

###

- test.system: α-synuclein (α-syn) aggregates in PD brain homogenates (Homo sapiens, UniProt P37840)
- Construct: Anterior cingulate cortex tissue from a Parkinson’s disease (PD) case; tissue Banner Sun Health Research Institute (Dr. Thomas Beach); host or cells: post-mortem human PD anterior cingulate cortex homogenate
- assay.comment: Two point screening assay (30 nM and 300 nM) vs [3H]asyn-44 in human PD brain homogenates
- Format: binding
- conditions: 30 nM competitor
endpoint.name: % [3H]asyn-44 remaining at 30 nM (%)

(1) FC1CCN(c2ccc(-c3ccc4scc(-c5cccnc5)c4n3)cn2)C1 (stereo not drawn) [LMD-041]
(2) O=C1NCc2nc(-c3ccc(N4CCC(F)C4)nc3)ccc21 (stereo not drawn) [LMD-064]
Prompt line: Consider 1 and 2 . Which of these has its % [3H]asyn-44 remaining at 30 nM at a higher number? # respond with the chosen item's label
Response line: 1
(1: 77%, 2: 46%)

###

- assay.comment: Metabolic stability in human liver microsomes
- Format: in vitro ADME
- conditions: pooled human liver microsomes, pH 7.4; human liver microsomes, 1 μM, 5 min
endpoint.name: remaining at 5 min, 1 μM (%)

FC1CCN(c2cnc(-n3cc4sc(-c5cccnc5)cc4n3)cn2)CC1 [LMD-051]	75.8

(1) F[C@@H]1CCN(c2cnc(-c3ccc4scc(-c5cccnc5)c4n3)cn2)C1 [LMD-045]
(2) F[C@@H]1CCN(c2cc(-n3cc4sc(-c5cccnc5)cc4n3)ncn2)C1 [LMD-052]
Prompt line: When 1 and 2 are compared, which has the higher number for remaining at 5 min, 1 μM? Please reply using the label of the selected record.
Response line: 1

###

- test.system: [^3H]Z-2340 binding in post-mortem Alzheimer’s disease (AD) brain tissue
- assay.comment: Competition binding vs [3H]Z-2340 in post-mortem AD brain tissue
endpoint.name: Ki

Prompt line: Provide one value: measured Ki of O=C1NCc2nc(-c3cnc(N4CC[C@@H](F)C4)cn3)ccc21 [LMD-022]
Response line: > 10 µM

###

- test.system: α-synuclein (α-syn) aggregates in PD brain homogenates (Homo sapiens, UniProt P37840)
- Construct: Anterior cingulate cortex tissue from a Parkinson’s disease (PD) case; tissue Banner Sun Health Research Institute (Dr. Thomas Beach); host or cells: post-mortem human PD anterior cingulate cortex homogenate
- assay.comment: Two point screening assay (30 nM and 300 nM) vs [3H]asyn-44 in human PD brain homogenates
- Type: binding
- conditions: 300 nM competitor
endpoint.name: % [3H]asyn-44 remaining at 300 nM (%)

The following compounds have reported results that may help.
O=C1NCc2nc(-c3ccc(N4CCC(F)C4)nc3)ccc21 (stereo not drawn) [LMD-064]	26
FC1CCN(c2ccc(-c3cc4nc(-c5cccnc5)ccc4s3)cn2)C1 (stereo not drawn) [LMD-024]	13

(P) FC1CCN(c2ccnc(-n3cc4sc(-c5cccnc5)cc4n3)n2)C1 (stereo not drawn) [LMD-061]
(Q) Cn1cnc(N2Cc3nc(-c4ccc(N5CCC(F)C5)nc4)ccc3C2=O)c1 (stereo not drawn) [LMD-023]
Prompt line: Would you mind telling me which has the lower recorded % [3H]asyn-44 remaining at 300 nM between P and Q ? Reply briefly: the label of your chosen item.
Response line: P
(P: 29%, Q: 50%)

(1) FC1CCN(c2cc(-n3ncc4sc(-c5cccnc5)cc43)ncn2)C1 (stereo not drawn) [LMD-073]
(2) Cn1ccc(-c2cc3nc(-c4cnc(N5CCC(F)C5)cn4)ccc3s2)n1 (stereo not drawn) [LMD-013]
Prompt line: Which one would you say has the larger % [3H]asyn-44 remaining at 300 nM value: 1 , or 2 ? Lab note: record the label of whichever item you select.
Response line: 2
(2: 58%, 1: 29%)
